Origin of the recorded values: patent US20230257372A1

# Test target: human recombinant HDAC6 (Homo sapiens)
# Construct: purchased Calbiochem Inc. 382180
# Sequence (Q9UBN7 1-1215): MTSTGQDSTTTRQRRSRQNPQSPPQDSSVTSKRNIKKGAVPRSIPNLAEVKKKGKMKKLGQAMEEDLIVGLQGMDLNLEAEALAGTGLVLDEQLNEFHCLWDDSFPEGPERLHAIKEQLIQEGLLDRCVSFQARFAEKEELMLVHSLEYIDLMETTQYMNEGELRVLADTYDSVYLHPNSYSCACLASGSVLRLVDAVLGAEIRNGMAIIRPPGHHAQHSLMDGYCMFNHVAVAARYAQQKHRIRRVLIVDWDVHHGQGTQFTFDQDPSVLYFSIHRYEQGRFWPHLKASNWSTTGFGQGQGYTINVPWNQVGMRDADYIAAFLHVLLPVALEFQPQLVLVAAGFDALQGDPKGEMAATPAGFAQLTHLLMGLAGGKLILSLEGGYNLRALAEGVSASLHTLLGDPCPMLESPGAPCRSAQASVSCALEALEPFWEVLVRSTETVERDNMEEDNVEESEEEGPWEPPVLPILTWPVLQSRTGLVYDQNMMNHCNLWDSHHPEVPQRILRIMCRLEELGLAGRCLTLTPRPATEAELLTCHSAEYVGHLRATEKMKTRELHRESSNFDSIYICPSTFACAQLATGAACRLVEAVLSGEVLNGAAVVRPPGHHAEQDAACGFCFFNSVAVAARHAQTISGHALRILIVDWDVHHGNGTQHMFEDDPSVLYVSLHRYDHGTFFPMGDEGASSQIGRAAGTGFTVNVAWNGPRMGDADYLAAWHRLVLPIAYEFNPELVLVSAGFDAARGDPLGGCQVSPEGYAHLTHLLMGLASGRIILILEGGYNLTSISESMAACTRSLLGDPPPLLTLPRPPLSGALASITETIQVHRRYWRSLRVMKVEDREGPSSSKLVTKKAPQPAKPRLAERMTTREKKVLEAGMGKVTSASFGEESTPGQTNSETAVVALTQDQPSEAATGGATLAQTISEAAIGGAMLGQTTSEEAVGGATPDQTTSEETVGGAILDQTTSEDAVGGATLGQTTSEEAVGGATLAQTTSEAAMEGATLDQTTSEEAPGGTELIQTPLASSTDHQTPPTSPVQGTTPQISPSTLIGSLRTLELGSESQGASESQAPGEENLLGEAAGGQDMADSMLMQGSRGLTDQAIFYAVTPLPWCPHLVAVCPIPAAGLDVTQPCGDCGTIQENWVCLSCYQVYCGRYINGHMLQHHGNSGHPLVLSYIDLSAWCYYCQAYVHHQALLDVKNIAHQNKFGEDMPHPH
# Assay remarks: HDAC6 enzyme activity inhibition (HDAC Fluorimetric Drug Discovery Kit)
# Assay type: biochemical
# Cond: HDAC6 over HDAC1
Recorded endpoint: HDAC6 selectivity (fold)

# example entries with known answers
>>> recorded_result("Fc1cc(-c2nnc(C(F)F)o2)cnc1Cn1cc(-c2cccc(C3CCN(C4CCC4)CC3)c2)nn1")
1123
>>> recorded_result("Fc1cc(-c2nnc(C(F)F)o2)ccc1Cn1cc(-c2ccc(CN3CCCC3)c(Cl)c2)nn1")
685
>>> recorded_result("Fc1cc(-c2nnc(C(F)F)o2)cnc1Cn1cc(-c2ccc(CN3CCC3)cc2Cl)nn1")
1061
>>> recorded_result("CN(C)Cc1cc(Cl)cc(-c2cn(Cc3ccc(-c4nnc(C(F)F)o4)cc3F)nn2)c1")
970
>>> recorded_result("FC(F)c1nnc(-c2ccc(Cn3cc(-c4cccc(C5CN(C6COC6)C5)c4)nn3)nc2)o1")
2032

[1] CN1CCC(c2cccc(-c3cn(Cc4ncc(-c5nnc(C(F)F)o5)cc4F)nn3)c2)CC1
[2] Fc1cc(-c2nnc(C(F)F)o2)ccc1Cn1cc(-c2ccc(C3CN(C4COC4)C3)cc2)nn1
[3] CC1CCN(Cc2ccc(-c3cn(Cc4ccc(-c5nnc(C(F)F)o5)cc4F)nn3)cc2)CC1
Sort entries by HDAC6 selectivity (fold) from minimum to maximum value. Would you mind listing the labels in the order asked for?
2, 1, 3
